testedTarget: BChE from equine serum (Equus caballus, UniProt P81908)
Construct: butyrylcholinesterase was from equine serum
Sequence (P81908 whole entry): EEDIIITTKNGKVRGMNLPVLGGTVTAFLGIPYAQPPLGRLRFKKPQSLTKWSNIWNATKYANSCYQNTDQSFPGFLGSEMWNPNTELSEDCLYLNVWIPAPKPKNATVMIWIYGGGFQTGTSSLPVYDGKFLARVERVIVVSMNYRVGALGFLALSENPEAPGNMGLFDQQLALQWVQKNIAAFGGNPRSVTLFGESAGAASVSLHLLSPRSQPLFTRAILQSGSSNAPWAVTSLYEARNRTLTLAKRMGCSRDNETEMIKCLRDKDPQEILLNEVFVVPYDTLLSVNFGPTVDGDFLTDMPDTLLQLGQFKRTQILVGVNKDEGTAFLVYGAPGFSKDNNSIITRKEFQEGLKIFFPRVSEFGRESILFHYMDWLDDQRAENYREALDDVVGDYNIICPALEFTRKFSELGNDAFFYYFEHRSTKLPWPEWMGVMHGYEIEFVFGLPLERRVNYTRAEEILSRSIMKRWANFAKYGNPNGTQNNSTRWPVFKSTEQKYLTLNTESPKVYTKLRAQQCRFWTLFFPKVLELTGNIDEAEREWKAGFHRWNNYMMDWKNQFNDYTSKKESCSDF
assayDetails: Butyrylcholinesterase inhibition, spectrophotometric Ellman's method
observationType: log10 IC50 (log10 of the value in µM)

CN(C(=O)Oc1ccc(Cl)cc1C(=O)Nc1ccc(C(F)(F)F)cc1)c1ccccc1 [4c]	0.29
CN(C)C(=O)Oc1ccccc1C(=O)Nc1ccccc1 [5a]	1.92
CN(C)C(=O)Oc1ccc(Cl)cc1C(=O)Nc1ccc(Br)cc1 [2a]	1.73
CN(C(=O)Oc1ccc(Cl)cc1C(=O)Nc1ccc(F)cc1)c1ccccc1 [3c]	0.87
CN(C(=O)Oc1ccc(Cl)cc1C(=O)Nc1ccc(Cl)cc1)c1ccccc1 [1c]	0.62
O=C(Nc1ccccc1)c1ccccc1OC(=O)N(c1ccccc1)c1ccccc1 [5d]	0.20
CN(C)C(=S)Oc1ccc(Cl)cc1C(=O)Nc1ccc(F)cc1 [3b]	1.96
O=C(Nc1ccc(Cl)cc1)c1cc(Cl)ccc1OC(=O)N(c1ccccc1)c1ccccc1 [1d]	2.03
CN(C)C(=S)Oc1ccccc1C(=O)Nc1ccccc1 [5b]	1.42
CN(C)C(=S)Oc1ccc(Cl)cc1C(=O)Nc1ccc(Cl)cc1 [1b]	1.71

---

Selectivity to BChE reference
testedTarget: BChE from equine serum (Equus caballus)
Construct: butyrylcholinesterase was from equine serum; from tissue; host or cells: equine serum
assayDetails: Butyrylcholinesterase inhibition, spectrophotometric Ellman's method
Assay type: biochemical
assaySetup: IC50 for AChE/IC50 for BChE
observationType: Selectivity to BChE

CN(C)C(=S)Oc1ccc(Cl)cc1C(=O)Nc1ccc(Cl)cc1 [1b]	0.8
CN(C)C(=O)Oc1ccc(Cl)cc1C(=O)Nc1ccc(Br)cc1 [2a]	1.2
CN(C(=O)Oc1ccc(Cl)cc1C(=O)Nc1ccc(Cl)cc1)c1ccccc1 [1c]	17.8
CN(C(=O)Oc1ccc(Cl)cc1C(=O)Nc1ccc(F)cc1)c1ccccc1 [3c]	8.5
CN(C)C(=O)Oc1ccc(Cl)cc1C(=O)Nc1ccc(Cl)cc1 [1a]	0.8
CN(C)C(=S)Oc1ccccc1C(=O)Nc1ccccc1 [5b]	2.3
O=C(Nc1ccc(F)cc1)c1cc(Cl)ccc1OC(=O)N(c1ccccc1)c1ccccc1 [3d]	3.1
CN(C)C(=O)Oc1ccccc1C(=O)Nc1ccccc1 [5a]	0.7
CN(C(=O)Oc1ccc(Cl)cc1C(=O)Nc1ccc(Br)cc1)c1ccccc1 [2c]	19.0
CN(C)C(=S)Oc1ccc(Cl)cc1C(=O)Nc1ccc(F)cc1 [3b]	1.0

---

testedTarget: BChE from equine serum (Equus caballus, UniProt P81908)
Construct: butyrylcholinesterase was from equine serum; from tissue; host or cells: equine serum
assayDetails: Butyrylcholinesterase inhibition, spectrophotometric Ellman's method
Type: biochemical
assaySetup: ratio of cellular toxicity (HepG2 IC50) and IC50 for BChE
Selectivity Index for BChE reference
observationType: Selectivity Index for BChE

CN(C(=O)Oc1ccc(Cl)cc1C(=O)Nc1ccc(Cl)cc1)c1ccccc1 [1c]	68.8
CN(C)C(=O)Oc1ccccc1C(=O)Nc1ccccc1 [5a]	71.6
CN(C)C(=S)Oc1ccc(Cl)cc1C(=O)Nc1ccc(Cl)cc1 [1b]	1.6
CN(C)C(=S)Oc1ccc(Cl)cc1C(=O)Nc1ccc(C(F)(F)F)cc1 [4b]	1.9
CN(C(=O)Oc1ccc(Cl)cc1C(=O)Nc1ccc(F)cc1)c1ccccc1 [3c]	69.8
O=C(Nc1ccccc1)c1ccccc1OC(=O)N(c1ccccc1)c1ccccc1 [5d]	131.9
